src = paper PMC4089491

Target: Variant1 ND (Burkholderia rhizoxinica) (UniProt E5AV36)
Assay: ITC
Conditions: FA and ITC: 25 mM HEPES pH 8, 150 mM NaCl, 0.2 mM TCEP, 298 K, SPR: HBS-EP+ (10 mM HEPES pH 7.4, 150 mM NaCl, 3 mM EDTA, 0.05% P20)
Metric: Kd (nM)

1) TTGGCTCTGTGGGCTCGGGTCTA (double strand) [V1 target]: 29
